# Target Entity: hM5 (human Muscarinic receptor subtype 5) (Homo sapiens)
# Sequence (P08912 whole entry): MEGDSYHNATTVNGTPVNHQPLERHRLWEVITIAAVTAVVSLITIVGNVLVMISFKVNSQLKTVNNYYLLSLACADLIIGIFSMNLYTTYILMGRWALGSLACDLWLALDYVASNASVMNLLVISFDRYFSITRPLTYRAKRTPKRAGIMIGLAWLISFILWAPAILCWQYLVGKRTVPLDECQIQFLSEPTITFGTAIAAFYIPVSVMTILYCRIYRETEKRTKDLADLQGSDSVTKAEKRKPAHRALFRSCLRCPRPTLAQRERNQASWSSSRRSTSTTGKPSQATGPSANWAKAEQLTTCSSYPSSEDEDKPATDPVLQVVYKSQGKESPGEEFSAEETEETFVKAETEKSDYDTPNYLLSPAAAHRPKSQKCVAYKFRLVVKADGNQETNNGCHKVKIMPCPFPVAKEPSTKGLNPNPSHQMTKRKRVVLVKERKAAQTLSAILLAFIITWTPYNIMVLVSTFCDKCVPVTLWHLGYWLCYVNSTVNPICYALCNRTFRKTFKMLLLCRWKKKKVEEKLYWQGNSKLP
# Measurement Notes: Human M5 calcium mobilization FLIPR assay
# Condition Label: CHO cells expressing hM5, Ca2+ release
pEC50: −log10 of the molar value.

Chemical String | Comparison Symbol | pEC50
O=C(C1CCCC1)N1CCC(N2CCC(N3C(=O)N[C@H]4CCCC[C@@H]43)CC2)CC1 | < | 4.40
CCOC(=O)N1CCC(N2CCC(N3C(=O)N[C@H]4CCCC[C@@H]43)CC2)CC1 | = | 6.66
Cc1ccccc1C(=O)N1CCC(N2CCC(N3C(=O)C[C@H]4CCCC[C@@H]43)CC2)CC1 | < | 4.40
O=C1CCCN1CCC(=O)N1CCC(N2CCC(N3C(=O)N[C@@H]4CCCC[C@H]43)CC2)CC1 | = | 5.62
CN1C(=O)N(C2CCN(C3CCN(C(=O)C4CC4)CC3)CC2)[C@H]2CCCC[C@@H]21 | < | 4.40
CCOC(=O)N1CCC(N2CCC(N3C(=O)N(C(C)C)[C@H]4CCCC[C@@H]43)CC2)CC1 | < | 4.40
O=C1CCCN1CCC(=O)N1CCC(N2CCC(N3C(=O)N[C@H]4CCCC[C@@H]43)CC2)CC1 | = | 5.80
CC(C)OC(=O)N1CCC(N2CCC(N3C(=O)N[C@@H]4CCCC[C@@H]43)CC2)CC1 | = | 7.14
CC(C)OC(=O)N1CCC(N2CCC(N3C(=O)N[C@H]4CCCC[C@@H]43)CC2)CC1 | = | 7.44
